- Tested on: GAL4-PPAR γ chimeric nuclear receptor (human PPAR γ ligand binding domain) (Homo sapiens, UniProt P37231)
- Sequence (P37231 202-503, change not shown): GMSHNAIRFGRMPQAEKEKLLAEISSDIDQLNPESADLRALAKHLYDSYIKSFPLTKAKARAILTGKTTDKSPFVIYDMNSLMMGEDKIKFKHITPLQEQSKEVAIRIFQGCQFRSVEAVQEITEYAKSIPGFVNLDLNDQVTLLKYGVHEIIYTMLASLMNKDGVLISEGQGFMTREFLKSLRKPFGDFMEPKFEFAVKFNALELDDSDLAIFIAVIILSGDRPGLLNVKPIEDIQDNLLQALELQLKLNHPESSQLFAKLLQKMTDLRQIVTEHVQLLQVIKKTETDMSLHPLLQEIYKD
- Procedure details: PPAR γ transactivation assay by transient gene transfer (GAL4-PPAR γ chimeric receptor, luciferase reporter, HEK293EBNA cells)
- Stated conditions: concentration showing 50% of efficacy (maximum activity rate relative to pioglitazone = 100%), 24 hr
- Procedure: The agonist activity of the test compound to PPAR γ was determined by a transactivation assay method using a chimeric nuclear receptor of a DNA binding region of a yeast transcription factor GAL4 and a PPAR γ ligand binding region. Specifically, the PPAR γ agonist activity of the test compound was evaluated by the following method based on the method of Lehmann et al. (J Biol. Chem., 1995, vol. 270, page 12953). […]
List of EC50 values.
Express your answer in nM, writing the number without its unit.

>  <Molecule>
C/C(=C1/c2ccc(Cn3c(C(C)C)nc(Cl)c3Cl)cc2COc2cc(F)ccc21)c1noc(=O)[nH]1 [Compound 13c]

>  <Unit of measurement>
nM

>  <EC50>
39.9

$$$$
>  <Molecule>
O=c1[nH]c(/C(F)=C2\c3ccc(Cc4c(C5CC5)nc5c(Cl)cccn45)cc3COc3cc(F)ccc32)no1

>  <Unit of measurement>
nM

>  <EC50>
54.5

$$$$
>  <Molecule>
C/C(=C1/c2ccc(Cc3c(C4CC4)nc4cc(F)ccn34)cc2COc2cc(F)ccc21)c1noc(=O)[nH]1 [Compound 10c]

>  <Unit of measurement>
nM

>  <EC50>
12.7

$$$$

IN: Fill blank: measured EC50 of the molecule C/C(=C1/c2ccc(Cc3c(C4CC4)nc4ccccn34)cc2COc2cc(F)ccc21)c1noc(=O)[nH]1 is ____.
OUT: 27.7
